System: neuroblastoma (N1E115) cells
Experiment: Assay for inhibition of cell proliferation (MTT), neuroblastoma cells
Type: cell-based, mouse
Settings: Mus musculus, N1E-115; neuroblastoma (N1E115) cells, MTT
MEASURED QUANTITY: IC50 (nM)

CC(=O)O[C@H]1C(=O)[C@@]2(C)[C@H]([C@H](OC(=O)c3ccccc3)[C@]3(O)C[C@H](OC(=O)[C@H](O)[C@@H](NC(=O)c4ccccc4)c4ccccc4)C(C)=C1C3(C)C)[C@]1(OC(C)=O)CO[C@@H]1C[C@@H]2O [paclitaxel, reference compound]	88

A = CC[C@H](C)Cn1c(-c2c(F)cc(OC)cc2F)c(Cl)nc(-n2cccn2)c1=O [Compound 457]
B = CC(C)Cn1c(-c2ccc(F)cc2Cl)c(Cl)nc(-n2cccn2)c1=O [Compound 53]
Q: Lab notebook, comparison: A versus B , higher IC50 goes to which? Please reply using the label of the selected record.
Result: B
(B: 700 nM, A: 39 nM)

###

Here, each record is paired with measured RD Ratio (paclitaxel/compound) data.
Test system: rhabdomyosarcoma (RD) cells
Assay: Assay for inhibition of cell proliferation (MTT), rhabdomyosarcoma cells
Format: cell-based, human
Settings: ratio of paclitaxel IC50 to compound IC50, RD cells
Give a plain numeric answer without units written out.

CCC(C)Cn1c(-c2ccc(OCCN(C)C)cc2F)c(Cl)nc(-n2cccn2)c1=O (stereo not shown)	0.06
Cc1ccn(-c2nc(Cl)c(-c3c(F)cc(OCCCN(C)C)cc3F)n(CC(C)C)c2=O)n1	0.22

Q: What RD Ratio (paclitaxel/compound) appears in the records for this compound with rhabdomyosarcoma (RD) cells? CC(Cn1c(-c2c(F)cc(OCCCN(C)C)cc2F)c(Cl)nc(-n2cccn2)c1=O)C(F)(F)F (stereo not shown)
Result: 0.62

Q: What RD Ratio (paclitaxel/compound) appears in the records for this compound with rhabdomyosarcoma (RD) cells? CC[C@H](C)Cn1c(-c2c(F)cc(OCCCN(C)C)cc2F)c(Cl)nc(-n2cccn2)c1=O
Result: 11.33

Q: What RD Ratio (paclitaxel/compound) appears in the records for this compound with rhabdomyosarcoma (RD) cells? CC[C@H](C)Cn1c(-c2c(F)cc(OCCCN(C)C(C)=O)cc2F)c(Cl)nc(-n2cccn2)c1=O
Result: 1.70

Q: What RD Ratio (paclitaxel/compound) appears in the records for this compound with rhabdomyosarcoma (RD) cells? CNCCCOc1cc(F)c(-c2c(Cl)nc(-n3cccn3)c(=O)n2-c2cccc(F)c2)c(F)c1.Cl
Result: 5.15

Q: What RD Ratio (paclitaxel/compound) appears in the records for this compound with rhabdomyosarcoma (RD) cells? CC[C@H](C)Cn1c(-c2c(F)cc(OC(C)=O)cc2F)c(Cl)nc(-n2cccn2)c1=O
Result: 0.30

###

System: rhabdomyosarcoma (RD) cells
Experiment: Assay for inhibition of cell proliferation (MTT), rhabdomyosarcoma cells
Assay type: cell-based, human
Settings: Homo sapiens; rhabdomyosarcoma (RD) cells, MTT, 96 h incubation
MEASURED QUANTITY: IC50 (nM)

CC[C@H](C)Cn1c(-c2c(F)cc(F)cc2F)c(Cl)nc(-n2cccn2)c1=O	20

1 = CC[C@H](C)Cn1c(-c2c(F)cc(OCCCNC)cc2Cl)c(Cl)nc(-n2cccn2)c1=O
2 = CC(=O)O[C@H]1C(=O)[C@@]2(C)[C@H]([C@H](OC(=O)c3ccccc3)[C@]3(O)C[C@H](OC(=O)[C@H](O)[C@@H](NC(=O)c4ccccc4)c4ccccc4)C(C)=C1C3(C)C)[C@]1(OC(C)=O)CO[C@@H]1C[C@@H]2O [paclitaxel, reference compound]
Q: Which entry shows the lesser value of IC50 here, 1 or 2 ? Please reply using the label of the selected record.
Result: 1

Sourced from patent US20090186907A1
